biological target: BAF3 FL KIT EX11DEL/D816H (Homo sapiens, UniProt P10721, D816H, cells depend on it, form not given); construct: "BAF3 FL KIT EX11DEL/ D816H"; test: c-Kit assay: Ba/F3 KIT mutant viability (Cell Titer-Glo, 72 hours); type: cell-based; details: viability after 72 hours
Sequence (P10721 with tags, fused parts or gaps DEL557-558/D816H, form open): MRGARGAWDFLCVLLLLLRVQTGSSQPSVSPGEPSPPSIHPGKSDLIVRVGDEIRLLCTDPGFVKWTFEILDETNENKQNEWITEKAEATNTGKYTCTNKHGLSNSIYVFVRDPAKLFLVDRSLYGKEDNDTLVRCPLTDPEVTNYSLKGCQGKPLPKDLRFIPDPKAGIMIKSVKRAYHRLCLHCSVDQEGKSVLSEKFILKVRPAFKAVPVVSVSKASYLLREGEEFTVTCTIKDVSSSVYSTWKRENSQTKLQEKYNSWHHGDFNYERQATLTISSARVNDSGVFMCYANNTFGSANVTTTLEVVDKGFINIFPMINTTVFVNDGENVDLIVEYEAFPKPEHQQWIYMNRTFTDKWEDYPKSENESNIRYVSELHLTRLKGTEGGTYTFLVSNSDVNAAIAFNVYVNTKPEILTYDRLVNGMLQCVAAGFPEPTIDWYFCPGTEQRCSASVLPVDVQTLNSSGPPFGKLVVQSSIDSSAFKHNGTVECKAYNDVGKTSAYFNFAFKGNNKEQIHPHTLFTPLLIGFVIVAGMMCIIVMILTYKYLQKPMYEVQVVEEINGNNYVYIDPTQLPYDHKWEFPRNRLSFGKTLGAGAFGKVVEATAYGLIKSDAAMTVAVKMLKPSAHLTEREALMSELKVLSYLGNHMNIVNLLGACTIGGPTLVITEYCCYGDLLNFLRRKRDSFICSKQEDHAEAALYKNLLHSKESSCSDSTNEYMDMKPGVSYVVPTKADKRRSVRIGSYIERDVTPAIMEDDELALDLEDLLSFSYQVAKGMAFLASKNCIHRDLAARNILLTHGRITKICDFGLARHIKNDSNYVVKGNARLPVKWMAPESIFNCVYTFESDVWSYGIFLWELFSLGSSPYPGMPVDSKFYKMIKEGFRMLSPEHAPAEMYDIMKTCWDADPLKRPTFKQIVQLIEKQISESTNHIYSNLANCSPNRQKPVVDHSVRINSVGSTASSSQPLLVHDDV
readout-name: GI50

Cn1cc(-n2cnc3cc(C#Cc4cc(C(=O)Nc5cc(C(F)(F)F)ccn5)ccc4F)ccc32)cn1 ... 100 to 10000 nM
Cc1ccc(C(=O)Nc2cc(C(F)(F)F)ccn2)cc1C#Cc1ccc2c(c1)ncn2-c1cnn(CCO)c1 ... 10 to 50 nM
Cc1ccc(C(=O)Nc2cccc(C3CC3)c2)cc1C#Cc1ccc2c(c1)ncn2-c1cnn(C)c1 ... 50 to 100 nM
Cc1ccc(C(=O)Nc2cc(C(F)(F)F)ccn2)cc1C#Cc1ccc2ncn(C)c2c1 ... 100 to 10000 nM
Cc1ccc(NC(=O)c2ccc(CN3CCN(C)CC3)c(C(F)(F)F)c2)cc1C#Cc1ccc2c(c1)ncn2C ... 100 to 10000 nM
COCCn1cc(-n2cnc3cc(C#Cc4cc(C(=O)Nc5cc(C(F)(F)F)ccn5)ccc4C)ccc32)cn1 ... 10 to 50 nM
Cc1ccc(NC(=O)c2cc(C(F)(F)F)ccn2)cc1C#Cc1ccc2c(c1)ncn2C ... 50 to 100 nM
Cc1ccc(NC(=O)c2ccc(CN3CCCC3)c(C(F)(F)F)c2)cc1C#Cc1ccc2c(c1)ncn2-c1cnn(C)c1 ... 100 to 10000 nM

Then there is this compound:
Q. Query GI50 for Cc1ccc(C(=O)Nc2cc(C(F)(F)F)ccn2)cc1C#Cc1ccc2c(c1)ncn2CCN(C)C
A. 100 to 10000 nM

Origin of values: patent US11117883B2
